pIC50: −log10 of the molar value.
ALK tyrosine kinase receptor (Homo sapiens, UniProt Q9UM73) pIC50, compiled from various sources.

Use these answered entries as a reference point.
molecule	pIC50
O=C(c1ccc(-c2cnc3c(c2)N(Cc2cc(Cl)ccc2Cl)C(=O)CN3)cc1)N1CCC(N2CCCC2)CC1	> 7.00
COC(=O)c1cccc(-c2cnc3c(c2)N(Cc2ccccc2)C(=O)CN3)c1	5.00 to 6.00
CN(C)CCCCCCNC(=O)c1ccc(-c2cnc3c(c2)N(Cc2ccccc2)C(=O)CN3)cc1	5.00 to 6.00
CN(C)CCCOc1ccc(-c2c(C#N)c(-c3ccc(O)cc3F)nc3[nH]nc(N)c23)cc1	> 7.00

Could you share which pIC50 value was measured for O=C(c1cccc(-c2cnc3c(c2)N(Cc2cc(Cl)ccc2C(F)(F)F)CCN3)c1)N1CCC(Cc2ccccc2)CC1 ? 6.00 to 7.00

Return reported pIC50; argument: O=C(c1ccc(-c2cnc3c(c2)N(Cc2ccccc2OC(F)(F)F)CCN3)cc1)N1CCC(N2CCCC2)CC1 > 7.00

Record request: pIC50 value, item O=C1c2cc3nc(-c4c(NC[C@@H](O)c5cccc(Cl)c5)cc[nH]c4=O)[nH]c3cc2C(=O)N1CCCn1ccnc1 5.30 to 6.30

###

Assembled from different publications: IC50 for ALK tyrosine kinase receptor (Homo sapiens).

The examples below pair each entry with its known result.
compound	observed_value
COc1cc2c(cc1Nc1nc(Nc3cccc(F)c3C(N)=O)c3cc[nH]c3n1)N(C(=O)CN(C)C)CC2	0.251 to 1 nM
CN1CCCC1CCN1C(=O)c2cc3nc(-c4c(NC[C@@H](O)c5cccc(Cl)c5)cc[nH]c4=O)[nH]c3cc2C1=O (stereo partly drawn)	500 to 5000 nM
O=C(NCCc1cccs1)c1ccc(-c2cnc3c(c2)N(Cc2cc(Cl)ccc2C(F)(F)F)CCN3)cc1	100 to 1000 nM
COCCN1CCC(CN2C(=O)c3cc4nc(-c5c(NC[C@@H](O)c6cccc(Cl)c6)cc[nH]c5=O)[nH]c4cc3C2=O)CC1	500 to 5000 nM
Cc1ccc(C(=O)Nc2n[nH]c3c2CCn2cc(C(=O)N4CCC(N5CCCCC5)CC4)cc2-3)c(C)c1	4910 nM

Name the reported IC50 value associated with the compound COc1cc(N2CCN(S(C)(=O)=O)CC2)ccc1Nc1nc(Nc2cccc(F)c2C(N)=O)c2cc[nH]c2n1 0.251 to 1 nM

Report IC50 for O=C(O)c1cccc(-c2cnc3c(c2)N(Cc2ccccc2)C(=O)CN3)c1 please. > 100000 nM

Which IC50 reading was recorded for the compound Cc1n[nH]c2nc(-c3ccc(O)cc3F)c(C#N)c(-c3ccc(N4CCC(N)CC4)o3)c12 ? < 100 nM

Value lookup for IC50; key = O=S(=O)(c1ccccc1)N1CCNc2ncc(I)cc21 10000 to 100000 nM

###

// cross-source set; read-out = IC50; system = ALK tyrosine kinase receptor (Homo sapiens, UniProt Q9UM73)

These solved cases illustrate the format of a correct answer.
molecule	IC50
Cc1n[nH]c2nc(-c3c(F)cc(O)cc3F)c(C#N)c(-c3ccc(N4CCNCC4)cc3)c12	< 100 nM
O=C(c1ccc(-c2cnc3c(c2)N(Cc2cc(Cl)ccc2C(F)(F)F)CCN3)cc1)N1CCN(c2ccccc2C(F)(F)F)CC1	100 to 1000 nM
Cc1ccc(OC[C@H](O)CNc2cc[nH]c(=O)c2-c2nc3cc4c(cc3[nH]2)C(=O)N(CCCN2CCCC2)C4=O)c2c1CCC2	500 to 5000 nM
CCNC(=O)c1c(F)cc(F)cc1Nc1nc(Nc2cc3c(cc2OC)CCCN3C(=O)CN(C)C)nc2[nH]ccc12	0.251 to 1 nM
Cc1n[nH]c2nc(-c3ccc(O)cc3F)c(C#N)c(-c3cnc(N)s3)c12	100 to 1000 nM

Quick check: IC50 of CN(C)CC#Cc1cnc2c(c1)N(Cc1cc(Cl)ccc1Cl)CCN2 ? 1000 to 10000 nM
